Test system: CCRF-CEM
METHOD SUMMARY: Antiviral activity was measured as IC50 by calculating amount of virus present in CEM cells by beta-galactosidase assay.
Format: functional, cell-based
RUN CONDITIONS: Homo sapiens
Each item that follows carries a reported pIC50.
# log scale: pIC50 equals minus log10 of the concentration in mol/L

Complete the entry with pIC50 for `Oc1ccc(/C=C/c2ccc3cccc(O)c3n2)cc1O`
5.44

Complete the entry with pIC50 for `O=C(O)c1ccc2ccc(/C=C/c3ccc(O)cc3O)nc2c1O`
4.10

Complete the entry with pIC50 for `O=C(O)c1cc(/C=C/c2ccc3ccc(C(=O)O)c(O)c3n2)ccc1O`
4.21

Next up:
Complete the entry with pIC50 for `O=C(O)c1ccc2ccc(/C=C/c3cc(O)c(O)c(O)c3)nc2c1O`
5.92
